Target: mutant Brassica napus EPSPS (Brassica napus, UniProt P17688, P178S/T174I)
Construct: The mature mutant Brassica napus EPSPS protein is purified; initiating Met (N)
Sequence (P17688 73-516 T174I/P178S): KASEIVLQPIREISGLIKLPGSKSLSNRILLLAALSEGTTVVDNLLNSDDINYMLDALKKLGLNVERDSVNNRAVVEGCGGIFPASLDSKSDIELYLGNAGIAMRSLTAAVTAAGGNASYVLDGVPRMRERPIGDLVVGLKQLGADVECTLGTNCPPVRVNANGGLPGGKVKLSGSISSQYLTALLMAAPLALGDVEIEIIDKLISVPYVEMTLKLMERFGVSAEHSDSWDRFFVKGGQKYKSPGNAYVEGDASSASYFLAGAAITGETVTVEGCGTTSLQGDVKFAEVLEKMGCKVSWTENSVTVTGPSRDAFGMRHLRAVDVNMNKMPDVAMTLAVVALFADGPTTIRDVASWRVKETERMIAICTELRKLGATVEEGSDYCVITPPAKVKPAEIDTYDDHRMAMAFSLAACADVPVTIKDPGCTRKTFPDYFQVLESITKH
Assay: Radiochemical EPSPS assay of purified mutant Brassica napus EPSPS
Conditions: purified mutant EPSPS; read-out: estimated Ki value for potassium glyphosate
Structures can show the parent of a compound that is named as a salt.
READOUT_LABEL: Ki

O=C(O)CNCP(=O)(O)O [potassium salt of glyphosate] ... ~450 µM
